Tested on: swine adipose tissue
Test: Inhibition of lipogenesis (lipid synthesis from glucose-U-14C) in swine adipose tissue slices
Assay type: cell-based
Conditions: Sus scrofa, 100 micrograms per milliliter, 37° C., 2 hours, 5% DMSO, insulin, triplicate, read-out: Percent Inhibition of lipogenesis compared to control
Param threshold (50%) applies to inhibition at 100 µg/mL; output t when value >= threshold, f when value < threshold.

## Input Please check the record C=CCNC(=O)C1CNc2cc(OC)ccc2O1 (centres unmarked) [Compound 7] and state if its inhibition at 100 µg/mL is at or above 50%.
## Output t

## Input Please check the record C=CCNC(=O)C1CNc2cc(C)ccc2O1 (centres unmarked) [Compound 4] and state if its inhibition at 100 µg/mL is at or above 50%.
## Output t

## Input Please check the record C=CCNC(=O)C1CNc2cc(-c3ccccc3)ccc2O1 (centres unmarked) [Compound 11] and state if its inhibition at 100 µg/mL is at or above 50%.
## Output t

## Input Please check the record C=CCNC(=O)C1CNc2cc(Cl)ccc2O1 (centres unmarked) [Compound 3] and state if its inhibition at 100 µg/mL is at or above 50%.
## Output t

## Input Please check the record C=CCNC(=O)C1CN(C)c2ccccc2O1 (centres unmarked) [Compound 2] and state if its inhibition at 100 µg/mL is at or above 50%.
## Output f

## Input Please check the record C=CCNC(=O)C1CNc2cc(Cl)c(Cl)cc2O1 (centres unmarked) [Compound 9] and state if its inhibition at 100 µg/mL is at or above 50%.
## Output f

## Input Please check the record C=CCNC(=O)C1CNc2cc(C(F)(F)F)ccc2O1 (centres unmarked) [Compound 6] and state if its inhibition at 100 µg/mL is at or above 50%.
## Output t

## Input Please check the record C=CCNC(=O)C1CNc2cccc(Cl)c2O1 (centres unmarked) [Compound 8] and state if its inhibition at 100 µg/mL is at or above 50%.
## Output f

## Input Please check the record C=CCNC(=O)C1CNc2ccc(C)cc2O1 (centres unmarked) [Compound 10] and state if its inhibition at 100 µg/mL is at or above 50%.
## Output f

## Input Please check the record C=CCNC(=O)C1CNc2cc(NS(C)(=O)=O)ccc2O1 (centres unmarked) [Compound 5] and state if its inhibition at 100 µg/mL is at or above 50%.
## Output f
